Data origin, for the record: patent US20250049896A1

# system name: T1, mf TFRC ecto-mmh (REGN2054), monomeric monkey (cyno) Tfrc ectodomain with C-terminal myc-myc-hexahistidine tag (monkey (cyno), Macaca fascicularis, UniProt H9EXL1 89-760)
# T1 construct: range 89-760; also called mfTfR-mmh; mfTFR-mmh
# T1 sequence (chain, as listed by the source): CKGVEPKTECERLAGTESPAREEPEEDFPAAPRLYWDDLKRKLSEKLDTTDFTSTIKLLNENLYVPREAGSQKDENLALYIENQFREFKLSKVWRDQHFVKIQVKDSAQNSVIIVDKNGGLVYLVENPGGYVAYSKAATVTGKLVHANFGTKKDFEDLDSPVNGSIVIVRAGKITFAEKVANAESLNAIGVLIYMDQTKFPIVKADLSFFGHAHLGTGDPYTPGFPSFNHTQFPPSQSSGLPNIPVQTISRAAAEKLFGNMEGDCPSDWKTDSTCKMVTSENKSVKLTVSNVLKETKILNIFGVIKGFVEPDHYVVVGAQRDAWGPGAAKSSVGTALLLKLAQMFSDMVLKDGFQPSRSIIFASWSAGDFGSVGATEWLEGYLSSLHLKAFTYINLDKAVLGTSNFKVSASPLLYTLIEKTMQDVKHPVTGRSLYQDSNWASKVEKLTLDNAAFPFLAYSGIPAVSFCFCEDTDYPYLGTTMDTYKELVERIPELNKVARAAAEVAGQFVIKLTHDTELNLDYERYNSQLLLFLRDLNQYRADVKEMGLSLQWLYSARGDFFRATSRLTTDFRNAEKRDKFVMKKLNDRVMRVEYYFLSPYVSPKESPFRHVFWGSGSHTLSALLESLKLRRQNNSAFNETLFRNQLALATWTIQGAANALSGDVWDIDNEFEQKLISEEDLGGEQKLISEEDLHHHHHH
# assay notes: SPR (Biacore), mAb captured on anti-human Fc, 100 nM mfTfR-mmh, 25 C
quantity kind: t½ (min)
Numbers only, in min.

Look up t½ for the entries below, preserving their order.
1. 12802B (antibody, human IgG1, kappa, V domains shown, Tested as bivalent human IgG1 from CHO primary supernatant) VH: QVQLVESGGGLVKPGGSLRLSCAASGFTFSDYFMSWIRQAPGKGLEWVSYISSTGSTINYADSVKGRFTISRDNVKNSLYLQMTSLRVEDTAVYYCTRDNWNYEYWGQGTLVTVSS VL: EIVMTQSPATLSVSPGERATLSCRASQSVSINLAWYQQKPGQAPRLLIFVASTRATGIPARFSGSGSGTEFTLTISSLQSEDFATYYCQQYDIWPYTFGQGTKLEIKR
2. 12799B (antibody, human IgG1, kappa, V domains shown, Tested as bivalent human IgG1 from CHO primary supernatant; also called H1H12799B; REGN17508) VH: QITLKESGPTLVKPTQTLTLTCTFSGFSLSTSGVGVVWIRQPPGKALEWLALIYWNDHKRYSPSLGSRLTITKDTSKNQVVLTMTNMDPVDTATYYCAHYSGSYSYYYYGLDVWGQGTTVTVSS VL: DIQMTQSPSSVSASVGDRVTITCRASQGIASWLAWYQQKPGKAPELLIYAASSLQGGVPSRFSGSGSGTDFTLTISSLQPEDFAIYYCQQANYFPWTFGQGTKVEIKR

21.8
71.2
